Tested on: MKL-1
MEASUREMENT_PROTOCOL: qHTS assay to identify novel small-molecules to repurpose for Merkel cell carcinoma treatment (AID 1296009); further: nearly all actives have a fitted effect of over 60% in size; further: potency means the concentration at half of the fitted maximal effect
STATED_CONDITIONS: MCC and control cell lines, CellTiter-Glo viability, 72 h; series mostly up to 46 µM
From the text: MCC is a rare and aggressive neuroendocrine skin cancer with limited treatment options. Approximately 80% of MCCs have the Merkel cell polyomavirus (MCPyV) DNA integrated into the host genome (virus-positive: VP-MCC) and viral oncogenes drive oncogenesis. The remaining MCCs are virus-negative (VN-MCC) and are caused by UV mutagenesis. […] Using cell viability as a readout (CellTiter-Glo assay) we found both overlapping and distinct drugs that can be repurposed for the treatment of VP-MCC and VN-MCC. […]
Inconclusive results are not listed. Activity calls are given as the source filed them. The call rests on the fitted dose curve; in most records, active means well fitted inhibition curve with a large enough effect; inconclusive means small, poorly fitted or top-dose-only effect; inactive means flat fitted curve, though single readings scatter.
REPORTED_PROPERTY: Potency

MOLECULE: CN(Cc1cnc2nc(N)nc(N)c2n1)c1ccc(C(=O)N[C@@H](CCC(=O)O)C(=O)O)cc1
RESULT: 10.5 µM (active)
//
MOLECULE: CC(CCc1ccc(O)cc1)NCCc1ccc(O)c(O)c1 (stereo not given)
RESULT: 7.5 µM (active)
//
MOLECULE: CN(C)C(=N)N=C(N)N
RESULT: inactive
//
MOLECULE: NS(=O)(=O)c1cc2c(cc1Cl)NCNS2(=O)=O
RESULT: inactive
//
MOLECULE: CN(C)CCC=C1c2ccccc2C=Cc2ccccc21
RESULT: inactive

Lab note: each molecule below needs its Potency filled in.
1. CCC1(C)CC(=O)NC1=O (stereo not given)
2. COc1cc2nc(N3CCN(C(=O)C4COc5ccccc5O4)CC3)nc(N)c2cc1OC (stereo not given)
3. CC(C)(Oc1ccc(C2CC2(Cl)Cl)cc1)C(=O)O (stereo not given)
4. Cc1cc(C(C)(C)C)c(O)c(C)c1CC1=NCCN1
5. Clc1ccc(C(c2ccccc2Cl)C(Cl)Cl)cc1 (stereo not given)

(A)
["inactive", "inactive", "inactive", "inactive", "inactive"]

* * *

MEASUREMENT_PROTOCOL: qHTS Screen of the MIPE 4.0 Collection Against Ewings Sarcoma (TC32) (AID 1259256); further: nearly all actives have a fitted effect of over 45% in size
STATED_CONDITIONS: TC32 Ewing sarcoma viability, CellTiter-Glo, 48 h; series mostly up to 45.8 µM
Inconclusive results are not listed. Activity calls are given as the source filed them. Calls follow the shape of the dose curve; as a rule, active = well fitted inhibition curve with a large enough effect; inconclusive = small, poorly fitted or top-dose-only effect; inactive = no such curve, though single readings can be large or run the other way.
Please state which outcome applies, choosing from active, inactive

COMPOUND: COc1ccccc1OCC(O)CN1CCN(CC(=O)Nc2c(C)cccc2C)CC1 (stereo not given)
CLASS: inactive
//
COMPOUND: CC#C[C@]1(O)CC[C@H]2[C@@H]3CCC4=CC(=O)CCC4=C3[C@@H](c3ccc(N(C)C)cc3)C[C@@]21C
CLASS: active
//
COMPOUND: OCCN1CCN(CCCN2c3ccccc3Sc3ccc(C(F)(F)F)cc32)CC1
CLASS: active
//
COMPOUND: Cc1ccc(-c2cc(C(F)(F)F)nn2-c2ccc(S(N)(=O)=O)cc2)cc1
CLASS: active

# evaluate next
(Q) // return assay outcome for "CCC1(c2ccccc2)C(=O)NCNC1=O"
(A) active

* * *

System: HEK293
MEASUREMENT_PROTOCOL: Cytotoxic Profiling of Annotated Libraries Using Quantitative High-Throughput Screening (AID 1296008); further: nearly all actives have a fitted effect of over 60% in size
STATED_CONDITIONS: Five cell lines viability, CellTiter-Glo ATP luminescence, 48-72 h
Inconclusive results are not listed. Activity calls are given as the source filed them. The call rests on the fitted dose curve; in most records, active means well fitted inhibition curve with a large enough effect; inconclusive means small, poorly fitted or top-dose-only effect; inactive means flat fitted curve, though single readings scatter.
Please state which outcome applies, choosing from active, inactive

COMPOUND: NC(=O)OCC(COC(N)=O)c1ccccc1
CLASS: inactive
--
COMPOUND: O=c1[nH]cc(F)c(=O)[nH]1
CLASS: active
--
COMPOUND: Cc1ccccc1N1C(=O)c2cc(S(N)(=O)=O)c(Cl)cc2NC1C (stereo not given)
CLASS: inactive
--
COMPOUND: C[C@](N)(Cc1ccc(O)c(O)c1)C(=O)O
CLASS: inactive
--
COMPOUND: CN(CCOc1ccc(NS(C)(=O)=O)cc1)CCc1ccc(NS(C)(=O)=O)cc1
CLASS: inactive
--
COMPOUND: CCCCc1oc2ccccc2c1C(=O)c1cc(I)c(OCCN(CC)CC)c(I)c1
CLASS: active
--
COMPOUND: CN1CCC(=C2c3ccccc3C=Cc3ccccc32)CC1
CLASS: active
--
COMPOUND: CCc1cccc2c3c([nH]c12)C(CC)(CC(=O)O)OCC3 (stereo not given)
CLASS: inactive
--
COMPOUND: Nc1ccn([C@H]2CC[C@@H](CO)O2)c(=O)n1
CLASS: inactive
--
COMPOUND: NCCc1cnc[nH]1
CLASS: inactive

(Q) // return assay outcome for "Clc1ccccc1C(c1ccccc1)(c1ccccc1)n1ccnc1"
(A) active

(Q) // return assay outcome for "CN1CCN(C2=Nc3cc(Cl)ccc3Nc3ccccc32)CC1"
(A) active
